Assay: Volume of distribution at steady state in Sprague-Dawley rat at 3 mg/kg, po and 0.5 mg/kg, iv
Format: ADME, organism-based
Settings: in vivo, read-out: Vdss
ENDPOINT: Vd (L/kg)

COC[C@H](C)COCc1ccc([C@@]2(O)CCNC[C@@H]2c2noc(-c3ccccc3CCNC(C)=O)c2Br)cc1
12

[1] CC(=O)NCCc1ccccc1-c1onc([C@H]2CNCC[C@]2(O)c2ccc(F)c(F)c2)c1Br
[2] CC(=O)NCCc1ccccc1-c1onc([C@H]2CNCC[C@]2(OCC(O)CO)c2ccc(F)c(F)c2)c1Br (stereo partly drawn)
For the pair 1 and 2 , which entry has the numerically smaller recorded Vd? Respond with the label that goes with your answer.
2
(2: 12 L/kg, 1: 36 L/kg)
